- Experimental system: ΔEA4 flotillin variant
Quantity measured: Kd (nM)

[[record]]
molecule = "CCC(C)CCCCCCCCCCC(=O)OC[C@H]1O[C@@H](OC(=O)/C(C)=C/C=C/C(C)=C/C=C/C(C)=C/C=C/C=C(C)/C=C/C=C(\\C)CCC=C(C)C)[C@H](O)[C@@H](O)[C@@H]1O (stereo partly shown) [staphyloxanthin]"
result = 9.43


----------
- Experimental system: ΔPHB flotillin variant
Quantity measured: Kd (nM)

[[record]]
compound = "CCC(C)CCCCCCCCCCC(=O)OC[C@H]1O[C@@H](OC(=O)/C(C)=C/C=C/C(C)=C/C=C/C(C)=C/C=C/C=C(C)/C=C/C=C(\\C)CCC=C(C)C)[C@H](O)[C@@H](O)[C@@H]1O (stereo partly shown) [staphyloxanthin]"
quantity_measured = "Kd"
unit_info = "nM"
result = 943

